Value source: patent US10807994B2

assayed-system: WEE1 kinase enzyme (Homo sapiens (Human), UniProt P30291)
Sequence (P30291 whole entry): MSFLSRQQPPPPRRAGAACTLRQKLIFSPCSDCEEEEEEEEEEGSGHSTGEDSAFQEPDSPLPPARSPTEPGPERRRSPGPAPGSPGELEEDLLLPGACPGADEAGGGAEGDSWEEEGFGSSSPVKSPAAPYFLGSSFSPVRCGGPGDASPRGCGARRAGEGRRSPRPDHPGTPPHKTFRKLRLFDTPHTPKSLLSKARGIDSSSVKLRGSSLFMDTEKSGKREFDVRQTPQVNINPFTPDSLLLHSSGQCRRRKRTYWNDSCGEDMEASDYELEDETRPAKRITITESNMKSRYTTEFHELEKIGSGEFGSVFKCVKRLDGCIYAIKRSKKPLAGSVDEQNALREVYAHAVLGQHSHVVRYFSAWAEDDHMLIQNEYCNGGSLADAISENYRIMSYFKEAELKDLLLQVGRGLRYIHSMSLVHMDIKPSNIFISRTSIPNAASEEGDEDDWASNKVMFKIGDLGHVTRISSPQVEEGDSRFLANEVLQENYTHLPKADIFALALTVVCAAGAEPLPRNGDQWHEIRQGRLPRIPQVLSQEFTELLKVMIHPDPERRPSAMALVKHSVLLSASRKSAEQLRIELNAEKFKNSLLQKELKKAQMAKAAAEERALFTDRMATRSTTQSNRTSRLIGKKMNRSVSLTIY
Structures can show the parent of a compound that is named as a salt.
measurement-name: IC50 (nM)
Number only, in nM; omit the unit.

{"columns": ["molecule", "quantity-unit", "IC50"],
 "data": [
  ["O=C(CO)N1CCN(c2ccc(Nc3ncc4c(n3)OCN(c3c(Cl)cccc3Cl)C4=O)cc2)CC1", "nM", 162],
  ["CCN1Cc2cc(Nc3ncc4c(n3)OCN(c3c(Cl)cccc3Cl)C4=O)ccc2C(C)(C)C1", "nM", 30],
  ["O=C1c2cnc(Nc3ccc(C4CCNCC4)c(CO)c3)nc2OCN1c1c(Cl)cccc1Cl", "nM", 14],
  ["CN(C)C1CCN(c2ccc(Nc3ncc4c(n3)OCN(c3c(Cl)cccc3Cl)C4=O)cc2)CC1", "nM", 32],
  ["O=C1c2cnc(Nc3ccc(N4CCNCC4)c(F)c3)nc2OCN1c1c(Cl)cccc1Cl", "nM", 212]
]}

Ask: Item: O=C1c2cnc(Nc3ccc(N4CCOCC4)cc3)nc2OCN1c1c(Cl)cccc1Cl Test system: WEE1 kinase enzyme (Homo sapiens (Human), UniProt P30291) Read-out: IC50 Value: ?
Result: 3260

Ask: Item: COc1cc(Nc2ncc3c(n2)OCN(c2c(Cl)cccc2Cl)C3=O)ccc1N1CCNCC1 [Example 1.53, dihydrochloride] Test system: WEE1 kinase enzyme (Homo sapiens (Human), UniProt P30291) Read-out: IC50 Value: ?
Result: 33

Ask: Item: CN1CCN(c2ccc(Nc3cc4c(cn3)C(=O)N(c3c(Cl)cccc3Cl)CO4)cc2)CC1 Test system: WEE1 kinase enzyme (Homo sapiens (Human), UniProt P30291) Read-out: IC50 Value: ?
Result: 366

Ask: Item: Cc1cc(Nc2ncc3c(n2)SCN(c2c(Cl)cccc2Cl)C3=O)ccc1N1CCNCC1 Test system: WEE1 kinase enzyme (Homo sapiens (Human), UniProt P30291) Read-out: IC50 Value: ?
Result: 111

Ask: Item: Cc1cc(Nc2ncc3c(n2)OCN(c2c(Cl)cccc2Cl)C3=O)ccc1N1CCNCC1 Test system: WEE1 kinase enzyme (Homo sapiens (Human), UniProt P30291) Read-out: IC50 Value: ?
Result: 50

Ask: Item: CN1Cc2cc(Nc3ncc4c(n3)SCN(c3c(Cl)cccc3Cl)C4=O)ccc2C(C)(C)C1 Test system: WEE1 kinase enzyme (Homo sapiens (Human), UniProt P30291) Read-out: IC50 Value: ?
Result: 95

Ask: Item: O=C1c2cnc(Nc3ccc(N4CCNC[C@@H]4CO)cc3)nc2OCN1c1c(Cl)cccc1Cl Test system: WEE1 kinase enzyme (Homo sapiens (Human), UniProt P30291) Read-out: IC50 Value: ?
Result: 113

Ask: Item: C[C@@H]1CN[C@@H](C)CN1c1ccc(Nc2ncc3c(n2)OCN(c2c(Cl)cccc2Cl)C3=O)cc1 [Example 1.47, hydrochloride] Test system: WEE1 kinase enzyme (Homo sapiens (Human), UniProt P30291) Read-out: IC50 Value: ?
Result: 70

Ask: Item: CN(C)Cc1c[nH]c2cc(Nc3ncc4c(n3)OCN(c3c(Cl)cccc3Cl)C4=O)ccc12 Test system: WEE1 kinase enzyme (Homo sapiens (Human), UniProt P30291) Read-out: IC50 Value: ?
Result: 110

Ask: Item: CN1CCN(c2ccc(Nc3ncc4c(n3)OCN(c3ccc(F)cc3Cl)C4=O)cc2)CC1 Test system: WEE1 kinase enzyme (Homo sapiens (Human), UniProt P30291) Read-out: IC50 Value: ?
Result: 837
